# Tested on: Echinochloa crus-galli (ECHCG)
# ASSAY NAME: Glasshouse assay for herbicidal activity (pre- and post-emergence), percentage phytotoxicity
# Assay type: in vivo
# CONDITION: Echinochloa crus-galli, post-emergence, 360 h, post-emergence, 250 g/ha, 15 DAA, visual score (100%=total damage; 0%=no damage); read-out: ECHCG POST herbicidal activity (percentage phytotoxicity)
Below, each entry is listed alongside its reported pest or weed control at 250 g/ha.
ENDPOINT LABEL: pest or weed control at 250 g/ha (%)

                                   compound                    endpoint_label  observed_result
0  Cc1cc(-c2ncc(Cl)cn2)cc(C)c1C1=C(OC(=O)C(C)(C)C)CC(CC(=O)NC(C)(C)C)C1=O (stereo not shown)  pest or weed control at 250 g/ha              100
1  CCSC(=O)OC1=C(c2c(C)cc(-c3ncc(Cl)cn3)cc2C)C(=O)C(CC(=O)NC(C)(C)C)C1 (stereo not shown)  pest or weed control at 250 g/ha              100
2  C=CCNC(=O)CC1CC(=O)C(c2c(C)cc(C)cc2C)C1=O (stereo not shown)  pest or weed control at 250 g/ha               90
3  COCCOCCCNC(=O)CC1CC(=O)C(c2c(C)cc(C)cc2C)C1=O (stereo not shown)  pest or weed control at 250 g/ha              100

====

# Test system: Lolium perenne (LOLPE)
# ASSAY NAME: Glasshouse assay for herbicidal activity (pre- and post-emergence), percentage phytotoxicity
# Assay type: in vivo
# CONDITION: Lolium perenne, post-emergence, 360 h, 250 g/ha; post-emergence; 15 DAA; visual assessment (100%=total damage, 0%=no damage); read-out: Post-emergence herbicidal activity (percentage phytotoxicity) LOLPE POST
hey, just use class 1 if measured pest or weed control at 250 g/ha is less than 80%, otherwise class 0

>>> df
                                    molecule  class_name
 0  Cc1cc(-c2ncc(Cl)cc2F)cc(C)c1C1C(=O)CC(CC(N)=O)C1=O (centres unmarked)     class 0
 1  COc1cccc(CNC(=O)CC2CC(=O)C(c3c(C)cc(-c4ncc(Cl)cc4F)cc3C)C2=O)c1 (centres unmarked)     class 0
 2  C=C(C)CNC(=O)CC1CC(=O)C(c2c(C)cc(OCC(F)(F)F)cc2C)C1=O (centres unmarked)     class 1
 3  CCNC(=O)CC1CC(=O)C(c2c(C)cc(-c3ncc(Cl)cc3F)cc2C)C1=O (centres unmarked)     class 0
 4  Cc1cc(OCC(F)(F)F)cc(C)c1C1C(=O)CC(CC(=O)N2CCOCC2)C1=O (centres unmarked)     class 0
 5  C=CCNC(=O)CC1CC(=O)C(c2c(C)cc(-c3ncc(Cl)cc3F)cc2C)C1=O (centres unmarked)     class 0
 6  CCC(C)NC(=O)CC1CC(=O)C(c2c(C)cc(-c3ncc(Cl)cc3F)cc2C)C1=O (centres unmarked)     class 0
 7  COCCCNC(=O)CC1CC(=O)C(c2c(C)cc(-c3ncc(Cl)cc3F)cc2C)C1=O (centres unmarked)     class 0
 8  Cc1cc(-c2ncc(F)cc2F)cc(C)c1C1C(=O)CC(CC(=O)NCc2ccc(F)c(F)c2)C1=O (centres unmarked)     class 0
 9  Cc1cc(C)c(C2C(=O)CC(CC(=O)NCc3cccc(C)n3)C2=O)c(C)c1 (centres unmarked)     class 1
10  C/C=C/CNC(=O)CC1CC(=O)C(c2c(C)cc(C)cc2C)C1=O (centres unmarked)     class 0
11  Cc1ccnc(CNC(=O)CC2CC(=O)C(c3c(C)cc(C)cc3C)C2=O)c1 (centres unmarked)     class 0
12  C/C=C/c1cc(C)c(C2C(=O)CC(CC(=O)N3CCOCC3)C2=O)c(CC)c1 (centres unmarked)     class 0
13  Cc1cc(C)c(C2C(=O)CC(CC(=O)NC(C#N)C3CC3)C2=O)c(C)c1 (centres unmarked)     class 1

====

# Tested on: Echinochloa crus-galli (ECHCG)
# ASSAY NAME: Glasshouse assay for herbicidal activity (pre- and post-emergence), percentage phytotoxicity
# Type: in vivo
# CONDITION: Echinochloa crus-galli, post-emergence, 360 h, post-emergence, 250 g/ha, 15 DAA, visual score (100%=total damage; 0%=no damage); read-out: ECHCG POST herbicidal activity (percentage phytotoxicity)
ENDPOINT LABEL: pest or weed control at 250 g/ha (%)

In [3]: df
Out[3]:
                                   compound                     test_target  observed_result
0  Cc1cc(C)c(C2C(=O)CC(CC(=O)NC3CC(F)C3)C2=O)c(C)c1 (stereo not shown)  Echinochloa crus-galli (ECHCG)               80
1  Cc1cc(C)c(C2C(=O)CC(CC(=O)N3CCC(C)CC3)C2=O)c(C)c1 (stereo not shown)  Echinochloa crus-galli (ECHCG)               70
2  Cc1cc(C)c(C2C(=O)CC(CC(=O)NCC3(F)COC3)C2=O)c(C)c1 (stereo not shown)  Echinochloa crus-galli (ECHCG)               70
3  CCCCCNC(=O)CC1CC(=O)C(c2c(C)cc(C)cc2C)C1=O (stereo not shown)  Echinochloa crus-galli (ECHCG)               90

====

# Tested on: Alopecurus myosuroides (ALOMY)
# ASSAY NAME: Glasshouse assay for herbicidal activity (pre- and post-emergence), percentage phytotoxicity
# Type: in vivo
# CONDITION: Alopecurus myosuroides, pre-emergence, 480 h, Rate 250 g/ha; pre-emergence; assessed visually 20 DAA; 100%=total damage, 0%=no damage; read-out: Pre-emergence herbicidal activity (percentage phytotoxicity) ALOMY PRE
Below, each entry is listed alongside its reported pest or weed control at 250 g/ha.
ENDPOINT LABEL: pest or weed control at 250 g/ha (%)

                                   compound  observed_result
0  CCNC(=O)CC1CC(=O)C(c2c(C)cc(C)cc2C)C1=O (centres unmarked)               70
1  Cc1cc(-n2cc(Cl)cn2)cc(C)c1C1C(=O)CC(CC(=O)NC(C)C)C1=O (centres unmarked)              100
2  Cc1cnc(CNC(=O)CC2CC(=O)C(c3c(C)cc(-c4ncc(Cl)cc4F)cc3C)C2=O)cn1 (centres unmarked)               70
3  Cc1cc(-c2ncc(F)cc2F)cc(C)c1C1C(=O)CC(CC(=O)NC(C)(C)C)C1=O (centres unmarked)              100
4  Cc1ccc(CNC(=O)CC2CC(=O)C(c3c(C)cc(C)cc3C)C2=O)nc1 (centres unmarked)               80
5  Cc1cc(C)c(C2C(=O)CC(CC(=O)NCCC#N)C2=O)c(C)c1 (centres unmarked)                0
6  Cc1cc(-c2ccc(Cl)nn2)cc(C)c1C1C(=O)CC(CC(=O)NCc2ncccc2Cl)C1=O (centres unmarked)               40
7  Cc1cc(C)c(C2C(=O)CC(CC(=O)NCc3ccc(C(F)(F)F)nc3)C2=O)c(C)c1 (centres unmarked)              100

====

# System: Avena fatua (AVEFA)
# ASSAY NAME: Glasshouse assay for herbicidal activity (pre- and post-emergence), percentage phytotoxicity
# Type: in vivo
# CONDITION: Avena fatua, pre-emergence, 480 h, Rate 250 g/ha; pre-emergence; assessed visually 20 DAA; 100%=total damage, 0%=no damage; read-out: Pre-emergence herbicidal activity (percentage phytotoxicity) AVEFA PRE
Below, each entry is listed alongside its reported pest or weed control at 250 g/ha.
ENDPOINT LABEL: pest or weed control at 250 g/ha (%)

In [3]: df
Out[3]:
                                    compound          test_target  observed_result
 0  Cc1cc(-c2ccc(Cl)nn2)cc(C)c1C1C(=O)CC(CC(=O)NCc2cccs2)C1=O (stereo not shown) [Compound A151]  Avena fatua (AVEFA)               70
 1  Cc1cnc(CNC(=O)CC2CC(=O)C(c3c(C)cc(-c4ncc(Cl)cc4F)cc3C)C2=O)s1 (stereo not shown) [Compound A123]  Avena fatua (AVEFA)               70
 2  Cc1cc(C)c(C2C(=O)CC(CC(=O)N(C)CC(C)C)C2=O)c(C)c1 (stereo not shown) [Compound A159]  Avena fatua (AVEFA)               20
 3  Cc1cc(-c2ccc(Cl)cn2)cc(C)c1C1C(=O)CC(CC(=O)NC(C)(C)C)C1=O (stereo not shown) [Compound A41]  Avena fatua (AVEFA)               70
 4  CC#Cc1cc(C)c(C2C(=O)CC(CC(=O)NC3CCC3)C2=O)c(C)c1 (stereo not shown) [Compound A81]  Avena fatua (AVEFA)              100
 5  Cc1cc(-c2ncc(F)cn2)cc(C)c1C1C(=O)CC(CC(=O)NCc2cccs2)C1=O (stereo not shown) [Compound A141]  Avena fatua (AVEFA)               90
 6  Cc1cc(-n2cc(Cl)cn2)cc(C)c1C1C(=O)CC(CC(=O)NCC(=O)c2ccccc2)C1=O (stereo not shown) [Compound A137]  Avena fatua (AVEFA)               60
 7  CCC(C)(C)NC(=O)CC1CC(=O)C(c2c(C)cc(-c3ncc(Cl)cc3F)cc2C)C1=O (stereo not shown) [Compound A46]  Avena fatua (AVEFA)               90
 8  Cc1ccsc1CNC(=O)CC1CC(=O)C(c2c(C)cc(-c3ncc(Cl)cc3F)cc2C)C1=O (stereo not shown) [Compound A131]  Avena fatua (AVEFA)               50
 9  CC#Cc1cc(C)c(C2C(=O)CC(CC(=O)NCCCC)C2=O)c(CC)c1 (stereo not shown) [Compound A51]  Avena fatua (AVEFA)              100
10  Cc1cc(-c2ccc(Cl)cn2)cc(C)c1C1C(=O)CC(CC(=O)NCc2cccc(C(F)(F)F)c2)C1=O (stereo not shown) [Compound A146]  Avena fatua (AVEFA)               90
11  CCNC(=O)CC1CC(=O)C(c2c(C)cc(C)cc2C)C1=O (stereo not shown) [Compound A20]  Avena fatua (AVEFA)               70
12  CC#Cc1cc(C)c(C2C(=O)CC(CC(=O)NC(C)C)C2=O)c(CC)c1 (stereo not shown) [Compound A54]  Avena fatua (AVEFA)              100
13  C#CC(C)(C)NC(=O)CC1CC(=O)C(c2c(C)cc(C#CC)cc2C)C1=O (single isomer, unassigned) [Compound A56]  Avena fatua (AVEFA)               90
14  C=CCOCC(C)(C)NC(=O)CC1CC(=O)C(c2c(C)cc(C#CC)cc2C)C1=O (stereo not shown) [Compound A64]  Avena fatua (AVEFA)               70
15  COCCNC(=O)CC1CC(=O)C(c2c(C)cc(-c3ncc(Cl)cc3F)cc2C)C1=O (stereo not shown) [Compound A47]  Avena fatua (AVEFA)              100
